# Test system: A. denitrificans membrane preparations
# method_description: [3H]adenine homologous competition, bacterial membrane preparations
# Set-up: species or system Achromobacter denitrificans
# conditions: read-out: binding affinity (IC50)
observed_property: pIC50
The meaning of pIC50 here: minus log10 of the concentration in molar units.

Query: Send back A. denitrificans membrane preparations pIC50 of Nc1ncnc2nc[nH]c12 only.
Reply: 5.62

* * *

# assayed_system: Achromobacter xylosoxidans (intact bacteria)
# method_description: [3H]adenine competition binding, intact bacteria
# conditions: read-out: IC50 value for the A. xylosoxidans binding site; intact bacteria, versus 10 nM [3H]adenine
observed_property: IC50 (nM)
Give the number; nM is assumed, so skip it.

Query: Note IC50 for the molecule shown: Nc1ncnc2nc[nH]c12
Reply: 13
